B1: HDAC6 (parent)
chain: KMKTRELHRESSNFDSIYICPSTF

variants of: B1; assay: protein stability index of a GFP-peptide fusion (GPS, HEK-293T) (PSI 1-6); higher = more stable; conditions: c terminus: a fixed tail appended;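 note: lentivirally expressed fusions sorted by FACS into six bins by GFP to DsRed ratio, PSI derived from sequencing read proportions per bin multiplied by bin number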
Readout type: protein stability index

Recorded results for 5 variants are shown here.
Residue change: E10F
protein stability index: 2.26
--
Residue change: K3E
protein stability index: 2.94
--
Residue change: S12T
protein stability index: 2.17
--
Residue change: P21N
protein stability index: 2.37
--
Residue change: S11F
protein stability index: 1.71

Query: May I ask what protein stability index has been recorded for R5E ?
Result: 2.73

Query: May I ask what protein stability index has been recorded for L7C ?
Result: 1.75

Query: May I ask what protein stability index has been recorded for T4I ?
Result: 1.85

Query: May I ask what protein stability index has been recorded for T4M ?
Result: 1.65

Query: May I ask what protein stability index has been recorded for D15T ?
Result: 1.9

Query: May I ask what protein stability index has been recorded for F24I ?
Result: 2.31

Query: May I ask what protein stability index has been recorded for I17E ?
Result: 3.19

Query: May I ask what protein stability index has been recorded for I19F ?
Result: 2.81

Query: May I ask what protein stability index has been recorded for R9T ?
Result: 2.39

Query: May I ask what protein stability index has been recorded for F14G ?
Result: 4.12

Query: May I ask what protein stability index has been recorded for D15P ?
Result: 1.68

Query: May I ask what protein stability index has been recorded for R9Q ?
Result: 2.58

Query: May I ask what protein stability index has been recorded for N13K ?
Result: 2.23
